Test system: RARa homodimer (NR concentration 270 nM)
Test description: PBM binding z-score (relative to random genomic background probes); higher = stronger binding; sequences stand for … in GC…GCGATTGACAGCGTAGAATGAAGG
Would you mind labelling by PBM binding z-score? At or over 0.1 is yes (1), under is no (0).

{"Item sequence": "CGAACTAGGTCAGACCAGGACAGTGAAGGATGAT", "Label": "no (0)"}
{"Item sequence": "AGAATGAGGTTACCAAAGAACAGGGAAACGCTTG", "Label": "no (0)"}
{"Item sequence": "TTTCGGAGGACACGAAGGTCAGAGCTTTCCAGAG", "Label": "yes (1)"}
{"Item sequence": "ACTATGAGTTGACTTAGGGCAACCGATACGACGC", "Label": "yes (1)"}
{"Item sequence": "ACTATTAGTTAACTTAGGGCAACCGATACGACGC", "Label": "yes (1)"}
{"Item sequence": "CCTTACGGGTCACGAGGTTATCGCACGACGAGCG", "Label": "yes (1)"}
{"Item sequence": "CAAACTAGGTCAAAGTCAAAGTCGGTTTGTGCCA", "Label": "yes (1)"}
{"Item sequence": "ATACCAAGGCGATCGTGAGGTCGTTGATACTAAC", "Label": "yes (1)"}
{"Item sequence": "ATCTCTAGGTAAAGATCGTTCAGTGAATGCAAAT", "Label": "yes (1)"}
{"Item sequence": "GGAACGTGGGCAAGTTGATAGCAGAGTTTGATGG", "Label": "no (0)"}
{"Item sequence": "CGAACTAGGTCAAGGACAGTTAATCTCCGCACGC", "Label": "yes (1)"}

Where do the numbers come from? From the supplement of paper PMC6555819.
